System: MDA-N
assay_name: NCI tumour cell line growth inhibition, 48 h
TGI by entry:

CN(C)Cc1cc(C(=O)/C=C/c2ccccc2Cl)cc(CN(C)C)c1O = 34.1 µM

Note: attention shifts to another entry.
TGI lookup needed for `COc1ccc2[nH]c3c4c(ccc3c2c1)C(=O)C=CC4=O` , thanks. 29.7 µM

----------
Test system: LOX IMVI melanoma
assay_name: NCI tumour cell line growth inhibition, 48 h
Reported TGI values for a set of compounds
Please reply with the bare figure in µM and do not write the unit itself.

Here is how some compounds turned out for TGI.
Cc1cc(N/N=C/c2nc(-c3ccc(Br)cc3)oc2C)c2cc(Br)ccc2n1 = 4.3
CC(=O)/C=C/c1ccc(C#Cc2ccccc2)s1 = 31.9
COc1ccc2c(O)cc3c(c2c1)[C@H](CCl)CN3C(=O)c1cc2cc(NC(=O)CCN3CCOCC3)ccc2[se]1 = 0.0101
COc1ccc2[nH]c3c4c(ccc3c2c1)C(=O)C=CC4=O = 24.1
COC(=O)C1=C(C(=O)OC)SC2(S1)C1=C(CCCC1)SC(C(=O)OC)=C2C(=O)OC = 5.3

Missing value: TGI, LOX IMVI melanoma, entry `COc1ccc(/C(Cl)=C(\C=O)c2ccc(F)cc2)cc1OC` . Fill in? 30.7

What measured TGI is associated with `COC(=O)/C(C=O)=C/Sc1ccccc1` on LOX IMVI melanoma? 23

Entry `COc1cc(C)c2c(c1C)OC(=O)c1c(C)c(Cl)c(O)c(C=O)c1O2` , system LOX IMVI melanoma: what TGI was measured? 42.8

Report TGI for `CCOC(=O)/C=C(\C(=O)OCC)n1cc(C)c(=O)n(Cc2cnnn2CCCCOC(C)=O)c1=O` tested on LOX IMVI melanoma. 18.9

Item C=C1C(=O)O[C@H]2/C=C(/C)C3=CC(=O)[C@@](C)(C[C@@H](OC(=O)/C(C)=C\C)C12)O3 (stereo partly specified) with LOX IMVI melanoma - TGI? 1.14
